Target: Internal ribosome entry site (IRES)
Test: Binding affinity to HCV cyanine dye-labeled IRES subdomain 2a RNA by FRET assay in presence of tRNA
The threshold is 50 µM. Values of EC50 beneath it are tagged yes (1); values meeting or exceeding it are tagged no (0).

{"Smiles string": "CN(C)CCCNc1nc2cccc(N)c2o1", "Tested target": "Internal ribosome entry site (IRES)", "Assigned category": "yes (1)"}
{"Smiles string": "CN(C)CCNc1nc2ccc(N)cc2o1", "Tested target": "Internal ribosome entry site (IRES)", "Assigned category": "no (0)"}
{"Smiles string": "Nc1ccc2nc(NCCCN3CCCCC3)oc2c1", "Tested target": "Internal ribosome entry site (IRES)", "Assigned category": "yes (1)"}
{"Smiles string": "CN(C)CCN(C)Cc1cccc2nc(N)oc12", "Tested target": "Internal ribosome entry site (IRES)", "Assigned category": "no (0)"}
{"Smiles string": "Nc1ccc2nc(NCCCN3CCOCC3)oc2c1", "Tested target": "Internal ribosome entry site (IRES)", "Assigned category": "yes (1)"}
{"Smiles string": "CN(C)CCCNc1ccc2nc(N)oc2c1", "Tested target": "Internal ribosome entry site (IRES)", "Assigned category": "yes (1)"}
{"Smiles string": "Nc1ccc2nc(NCCN3CCCCC3)oc2c1", "Tested target": "Internal ribosome entry site (IRES)", "Assigned category": "no (0)"}

* * *

Target: Internal ribosome entry site (IRES)
Assay: Binding affinity to HCV cyanine dye-labeled IRES subdomain 2a RNA by FRET assay in presence of tRNA
Set-up: species or system Hepacivirus hominis
Observation type: log10(EC50) (log10 of the value in µM)

{"Smiles string": "Nc1nc2ccc(Nc3ccccc3)cc2o1", "Observed": 1.95}
{"Smiles string": "CN(CCC(=O)N(C)C)Cc1cccc2nc(N)oc12", "Observed": 2.78}
{"Smiles string": "CN(C)CCCNc1nc2cc(N)ccc2o1", "Observed": 1.72}
{"Smiles string": "Nc1nc2ccc(NCc3ccccc3)cc2o1", "Observed": 1.43}
{"Smiles string": "CN(C)CCCNc1ccc2nc(NCCCN(C)C)oc2c1", "Observed": 1.80}
{"Smiles string": "CN(C)CCCNc1nc2ccccc2o1", "Observed": 2.04}
{"Smiles string": "CN(C)CCCNc1nc2ccc(N)cc2o1", "Observed": 2.08}
